- experimental-system: T1, PD-1-HIS (human, UniProt Q15116)
- T1 construct: soluble extracellular domain; May be the same protein as m2; also called PD-1-HIS(tag); PD-1-His Tag (Sino Biological #10377-H08H-50)
- T1 sequence (Q15116 25-167 limits assumed): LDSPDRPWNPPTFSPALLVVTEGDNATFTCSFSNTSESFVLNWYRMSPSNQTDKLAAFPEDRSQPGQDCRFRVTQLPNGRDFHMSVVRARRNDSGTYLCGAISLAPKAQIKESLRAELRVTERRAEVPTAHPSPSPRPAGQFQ
- assay-name: ELISA, supernatant of transfected HEK293 cells on PD-1-HIS(tag), OD 450 nm, average of two experiments
recorded-endpoint: binding result

Ask | Look up binding result of 100394_F1VH8_100395_F1VK4 (antibody, V domains shown, Mouse variable regions; cloned into pFUSE-CHIg-mG1 (murine IgG1 Fc), expressed in HEK293) VH: EVQLQESGPELVKPGASVKIPCKASGYTFTDYNMDWVKQSHGKSLEWIGDIDPNNGGTIYNQNFKGKATLTVDKSSSTAYMELRSLTSEDTAVYYCARWRSSMDYWGQGTSVTVSS VL: DIVLTQSPSSLSASLGDRVTISCSASQGISNYLNWYQQKPDGTVKLLIYYTSSLHSGVPSRFSGSGSGTDYSLTISNLEPEDIATYYCQQYSKLPWTFGGGTKLEIK and report it.
Reply | binds

Ask | Look up binding result of 100392_C5VH6_100393_C5VK7 (antibody, V domains shown, Mouse variable regions; cloned into pFUSE-CHIg-mG1 (murine IgG1 Fc), expressed in HEK293; also called 392C5A) VH: EVQLQESGPELVKPGASVKIPCKASGYTFTDYNMDWVKQSHGKSLEWIGDIDPNSGGSIYNQKFKGKATLTVDKSSRTVYMELRSLTSEDTAVYYCARWRSSMDYWGQGTSVTVSS VL: DIVMTQSPSSLSASLGDRVTISCSASQGISHYLNWYQQKPDGTVKLLIYYTSSLHSGVPSRFSGSGSGTDYSLTIRNLEPEDIATYYCQQYSELPWTFGGGTKLEIK and report it.
Reply | binds

Ask | Look up binding result of 100392_D2VH7_100393_D2VK6 (antibody, V domains shown, Mouse variable regions; cloned into pFUSE-CHIg-mG1 (murine IgG1 Fc), expressed in HEK293) VH: EVQLQESGPELVKPGASVKIPCKASGYTFTDYNMDWVKQSHGKSLEWIGDIDPNTGTTFYNQDFKGKATLTVDKSSSTAYMELRSLTSEDTAVYYCARWRSSMDYWGQGTSLTVSS VL: DIVMTQTPSSLSASLGDRVTISCSASQGISYYLNWYQQKPDGTIKLLIYYTLSLHSGVPSRFSGSGSGTDYSLTISNLEPEDIATYYCQQYSELPWTFGGGTKLEIK and report it.
Reply | binds
